target: Melanocortin receptor 3 (Mus musculus, UniProt P33033); assay: Agonist activity at mouse MC3R expressed in HEK293 cells by beta-galactosidase reporter gene assay; assay type: functional, cell-based
Sequence (P33033 whole entry): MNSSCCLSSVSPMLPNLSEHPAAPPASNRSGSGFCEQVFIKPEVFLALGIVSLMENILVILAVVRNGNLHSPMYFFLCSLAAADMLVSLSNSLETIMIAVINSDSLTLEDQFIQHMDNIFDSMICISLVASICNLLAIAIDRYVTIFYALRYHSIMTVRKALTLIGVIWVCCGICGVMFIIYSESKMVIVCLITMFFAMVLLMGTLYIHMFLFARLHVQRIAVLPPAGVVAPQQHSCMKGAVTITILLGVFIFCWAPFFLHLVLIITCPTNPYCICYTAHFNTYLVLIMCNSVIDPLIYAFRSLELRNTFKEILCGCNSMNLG
Assay metric: EC50 (µM)

1. NC(=O)[C@H](Cc1c[nH]c2ccccc12)NC(=O)[C@H](CCCN=C(N)N)NC(=O)[C@@H](Cc1ccccc1)NC(=O)[C@@H](N)Cc1ccccc1
2. N=C(N)NCCC[C@@H]1NC(=O)[C@@H](Cc2ccccc2)NC(=O)CN(Cc2ccccc2)C(=O)CCCCC(=O)NCCN(CC(N)=O)C(=O)[C@H](Cc2c[nH]c3ccccc23)NC1=O
Hello, I am sorting some records. Could you say if 1 or 2 has the smaller EC50 value? Your answer should be the label attached to the chosen record.
2
(2: 7.17 µM, 1: 11.9 µM)

---

assay: Metabolic stability in Wistar rat brush border membrane vesicles assessed as drug degradation up to 90 mins by HPLC; format: ADME, cell membranes; settings: read-out: Activity
Numbered stars: 1 amine (or outer) side, 2 acyl side, 3 side chain; on linkers, the order of the positions; unused ones are H or OH. Bridge positions count the residues as written; N and C are the ends. Square brackets hold non-standard residues; d marks the D form. Peptide text beside a SMILES is read from it. N(2-Aminoethyl)Gly = O=C(CN(CCN[*:3])[*:1])[*:2]; Adipoyl = O=C(CCCCC(=O)[*:2])[*:1]; Suc = O=C(CCC(=O)[*:2])[*:1]; Nphe = O=C(O)CNCc1ccccc1
Assay metric: metabolised at 1.5 h (%)

Molecule	Value unit	metabolised at 1.5 h
NC(=O)CN1CCNC(=O)CCCCC(=O)N(Cc2ccccc2)CC(=O)N(Cc2ccccc2)CC(=O)N[C@@H](CCCN=C(N)N)C(=O)N[C@@H](Cc2c[nH]c3ccccc23)C1=O ([Nphe][Nphe]RW[N(2-Aminoethyl)Gly]-NH2; linker N-5 via Adipoyl)	%	5
NC(=O)CN1CCNC(=O)CCC(=O)N[C@@H](Cc2ccccc2)C(=O)N(Cc2ccccc2)CC(=O)N[C@@H](CCCN=C(N)N)C(=O)N[C@@H](Cc2c[nH]c3ccccc23)C1=O (F[Nphe]RW[N(2-Aminoethyl)Gly]-NH2; linker N-5 via Suc)	%	5
N=C(N)NCCC[C@@H]1NC(=O)[C@@H](Cc2ccccc2)NC(=O)CN(Cc2ccccc2)C(=O)CCCCC(=O)NCCN(CC(N)=O)C(=O)[C@H](Cc2c[nH]c3ccccc23)NC1=O	%	5

a. N=C(N)NCCC[C@@H]1NC(=O)[C@@H](Cc2ccccc2)NC(=O)CN(Cc2ccccc2)C(=O)CCC(=O)NCCN(CC(N)=O)C(=O)[C@H](Cc2c[nH]c3ccccc23)NC1=O
b. CC(=O)NCC(=O)N[C@@H](Cc1ccccc1)C(=O)N(CC(=O)N[C@@H](CCCNC(=N)N)C(=O)N[C@@H](Cc1c[nH]c2ccccc12)C(=O)NCC(N)=O)Cc1ccccc1 (HELM PEPTIDE1{[ac].G.F.[O=C(CN(Cc1ccccc1)[*:1])[*:2]].R.W.G.[am]}$$$$V2.0)
Hello, I am sorting some records. Could you say if a or b has the smaller metabolised at 1.5 h value? Your answer should be the label attached to the chosen record.
a

---

target: Melanocyte-stimulating hormone receptor (Mus musculus, UniProt Q01727); test: Agonist activity at mouse MC1R expressed in HEK293 cells by beta-galactosidase reporter gene assay
Sequence (Q01727 whole entry): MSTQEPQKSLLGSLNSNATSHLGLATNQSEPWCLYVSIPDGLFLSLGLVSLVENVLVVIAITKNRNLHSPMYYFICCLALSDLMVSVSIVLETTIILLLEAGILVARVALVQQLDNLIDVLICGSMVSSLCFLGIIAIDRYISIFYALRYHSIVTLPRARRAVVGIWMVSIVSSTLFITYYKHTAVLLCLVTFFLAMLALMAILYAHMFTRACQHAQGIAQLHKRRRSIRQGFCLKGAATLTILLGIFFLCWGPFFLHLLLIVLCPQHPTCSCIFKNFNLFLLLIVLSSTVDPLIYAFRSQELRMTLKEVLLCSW
Numbered stars: 1 amine (or outer) side, 2 acyl side, 3 side chain; on linkers, the order of the positions; unused ones are H or OH. Bridge positions count the residues as written; N and C are the ends. Square brackets hold non-standard residues; d marks the D form. Peptide text beside a SMILES is read from it. N(2-Aminoethyl)Gly = O=C(CN(CCN[*:3])[*:1])[*:2]; Glutaryl = O=C(CCCC(=O)[*:2])[*:1]; Suc = O=C(CCC(=O)[*:2])[*:1]; Nphe = O=C(O)CNCc1ccccc1
Assay metric: EC50 (µM)

Compound	EC50, µM
NC(=O)CN1CCNC(=O)CCCC(=O)N(Cc2ccccc2)CC(=O)N(Cc2ccccc2)CC(=O)N[C@@H](CCCN=C(N)N)C(=O)N[C@@H](Cc2c[nH]c3ccccc23)C1=O ([Nphe][Nphe]RW[N(2-Aminoethyl)Gly]-NH2; linker N-5 via Glutaryl)	1.68

a. NC(=O)[C@H](Cc1c[nH]c2ccccc12)NC(=O)[C@H](CCCN=C(N)N)NC(=O)[C@@H](Cc1ccccc1)NC(=O)[C@@H](N)Cc1ccccc1
b. NC(=O)CN1CCNC(=O)CCC(=O)N[C@@H](Cc2ccccc2)C(=O)N(Cc2ccccc2)CC(=O)N[C@@H](CCCN=C(N)N)C(=O)N[C@@H](Cc2c[nH]c3ccccc23)C1=O (F[Nphe]RW[N(2-Aminoethyl)Gly]-NH2; linker N-5 via Suc)
c. N=C(N)NCCC[C@@H]1NC(=O)[C@@H](Cc2ccccc2)NC(=O)CN(Cc2ccccc2)C(=O)CCCCC(=O)NCCN(CC(N)=O)C(=O)[C@H](Cc2c[nH]c3ccccc23)NC1=O
d. CC(=O)NCC(=O)N[C@@H](Cc1ccccc1)C(=O)N(CC(=O)N[C@@H](CCCNC(=N)N)C(=O)N[C@@H](Cc1c[nH]c2ccccc12)C(=O)NCC(N)=O)Cc1ccccc1 (HELM PEPTIDE1{[ac].G.F.[O=C(CN(Cc1ccccc1)[*:1])[*:2]].R.W.G.[am]}$$$$V2.0)
Sequence the entries by EC50, beginning with the highest number. Submit the labels in the order that the ranking request calls for.
b, a, d, c
